target_desc: Aldehyde dehydrogenase 1A1 (Homo sapiens)
Sequence (P00352 whole entry): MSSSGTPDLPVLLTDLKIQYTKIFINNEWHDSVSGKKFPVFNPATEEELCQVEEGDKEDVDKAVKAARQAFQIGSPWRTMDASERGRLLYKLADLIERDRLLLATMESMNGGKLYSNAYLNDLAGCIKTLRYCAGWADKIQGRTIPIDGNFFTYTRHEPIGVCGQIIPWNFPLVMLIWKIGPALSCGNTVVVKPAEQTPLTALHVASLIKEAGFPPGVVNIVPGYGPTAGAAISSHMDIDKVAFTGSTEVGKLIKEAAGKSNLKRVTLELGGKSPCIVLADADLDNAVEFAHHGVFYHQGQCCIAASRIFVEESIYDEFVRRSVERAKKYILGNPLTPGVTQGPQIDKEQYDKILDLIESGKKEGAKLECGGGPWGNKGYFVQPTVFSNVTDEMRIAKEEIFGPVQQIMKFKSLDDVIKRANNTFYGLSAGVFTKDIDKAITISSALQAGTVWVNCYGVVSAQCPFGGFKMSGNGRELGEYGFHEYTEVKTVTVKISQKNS
attribute_measured: IC50 (nM)

O=C(NCCO)c1ccc2c(c1)nc(Nc1cccc(Cl)c1)c1ccncc12    100

---

Test system: T-24
assay_notes: Cytotoxicity against human T24 cells assessed as reduction in cell viability incubated for 72 hrs by MTT assay
Assay type: functional, cell-based
condition_parameters: T-24, 72 h
attribute_measured: IC50 (µM)

O=C(NCCO)c1ccc2c(c1)nc(Nc1cccc(Cl)c1)c1ccncc12    6.1
O=C(OCCI)c1ccc2c(c1)nc(Nc1cccc(Cl)c1)c1ccncc12    17.5
C#CCNC(=O)c1ccc2c(c1)nc(Nc1cccc(Cl)c1)c1ccncc12    18.5
O=C(NCCBr)c1ccc2c(c1)nc(Nc1cccc(Cl)c1)c1ccncc12    8.95
O=C(O)c1ccc2c(c1)nc(Nc1cccc(Cl)c1)c1ccncc12    12.9
CS(=O)(=O)NC(=O)c1ccc2c(c1)nc(Nc1cccc(Cl)c1)c1ccncc12    23.5
O=C(NCCN1CCCCC1)c1ccc2c(c1)nc(Nc1cccc(Cl)c1)c1ccncc12    3.24
COC(=O)CCNC(=O)c1ccc2c(c1)nc(Nc1cccc(Cl)c1)c1ccncc12    10.7
O=C(NCCCO)c1ccc2c(c1)nc(Nc1cccc(Cl)c1)c1ccncc12    18.8
O=C(OCCF)c1ccc2c(c1)nc(Nc1cccc(Cl)c1)c1ccncc12    5.91
